- study_target: human B1R (bradykinin receptor 1) (Homo sapiens, UniProt P46663)
- Construct: expressed in transfected cells; host or cells: CHO K1 cells
- Sequence (P46663 whole entry): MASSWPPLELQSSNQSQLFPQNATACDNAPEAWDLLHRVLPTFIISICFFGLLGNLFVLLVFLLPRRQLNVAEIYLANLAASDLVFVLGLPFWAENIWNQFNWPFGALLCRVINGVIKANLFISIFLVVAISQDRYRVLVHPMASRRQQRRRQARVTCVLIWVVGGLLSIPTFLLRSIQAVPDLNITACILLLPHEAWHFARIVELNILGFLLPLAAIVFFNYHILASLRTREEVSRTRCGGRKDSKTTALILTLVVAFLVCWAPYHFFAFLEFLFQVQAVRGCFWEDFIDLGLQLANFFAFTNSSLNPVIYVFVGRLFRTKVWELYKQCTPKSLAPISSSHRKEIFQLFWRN
- procedure_details: FLIPR Ca2+ assay (Fluo-4) on CHO K1 cells stably transfected with the human B1R gene (hB1R cells): % inhibition at 10 μM / IC50, agonist Lys-Des-Arg9-bradykinin
- Type: cell-based
- condition: CHO-K1, human B1R
measurement_type: inhibition at 10 µM
Kindly write the number and append the unit.

O=C(c1ccc2c(c1)C(NS(=O)(=O)c1ccccc1Cl)CC2)N1CCC2(CC1)CCN(c1ccncc1)C2 (stereo not shown) [Ind_CC-049]    99%

Batch request: inhibition at 10 µM per item, same order as input.
1. O=C(N[C@@H]1CCc2cc(C(=O)N3CCC4(CC3)CCN(c3ccncc3)CC4)ccc21)c1ccccc1Cl [Example H-172]
2. O=C(N[C@@H]1CCc2cc(F)c(C(=O)N3CCC4(CC3)CCN(c3ccncc3)C4)cc21)c1ccccc1Cl [Example H-89]
3. Cc1nc(CN2CCC3(CC2)CCN(C(=O)c2ccc4c(c2)C(NC(=O)c2ccccc2Cl)CC4)CC3)c[nH]1 (stereo not shown) [IND_CC-528]

1: 99%; 2: 99%; 3: 24%

Batch request: inhibition at 10 µM per item, same order as input.
1. O=C(NC1CCc2ccc(C(=O)N3CCC4(CCC(N5CC(F)(F)C5)CC4)CC3)cc21)c1ccccc1Cl (stereo not shown) [Example H-07]
2. O=C(NC1CCc2ccc(C(=O)N3CCC4(CCN(c5ccncc5)CC4)C3)cc21)c1ccccc1C(F)(F)F (stereo not shown) [Ind_CC-081]
3. O=C(NC1CCc2ccc(C(=O)N3CCC4(CC3)CCN(c3ccncc3)CC4)cc21)c1ccccc1Cl (stereo not shown) [IND_CC-273]

1. 34%
2. 99%
3. 99%

----------
- study_target: human B1R (bradykinin receptor 1) (Homo sapiens)
- Construct: expressed in transfected cells; host or cells: CHO K1 cells
- procedure_details: FLIPR Ca2+ assay (Fluo-4) on CHO K1 cells stably transfected with the human B1R gene (hB1R cells): % inhibition at 10 μM / IC50, agonist Lys-Des-Arg9-bradykinin
- Type: cell-based
- condition: CHO-K1, human B1R
measurement_type: inhibition at 10 µM

CC1(C)CC(NC(=O)c2cc(Cl)ccc2Cl)c2cc(C(=O)N3CCC4(CC3)CCN(c3ccncc3)CC4)ccc21 (stereo not shown)    99%

Batch request: inhibition at 10 µM per item, same order as input.
1. O=C(NC1CCc2ccc(C(=O)N3CCC4(CC3)CCN(c3cccnc3)CC4)cc21)c1sccc1Cl (stereo not shown)
2. COc1cc(C)c(C(=O)NC2CCc3ccc(C(=O)N4CCC5(CC4)CCN(c4ccc(F)cc4)CC5)cc32)c(C)c1 (stereo not shown)
3. CN(C(=O)c1ccc(Cl)s1)C1CCc2ccc(C(=O)N3CCC4(CC3)CCN(c3ccncc3)CC4)cc21 (stereo not shown)

87%
24%
99%

----------
Provide the recorded inhibition at 10 µM for the entries that follow.
- study_target: human B1R (bradykinin receptor 1) (Homo sapiens)
- Construct: expressed in transfected cells; host or cells: CHO K1 cells
- procedure_details: FLIPR Ca2+ assay (Fluo-4) on CHO K1 cells stably transfected with the human B1R gene (hB1R cells): % inhibition at 10 μM / IC50, agonist Lys-Des-Arg9-bradykinin
- Type: cell-based
- condition: CHO-K1, human B1R
Numbers only, in %.

Worked cases, inhibition at 10 µM given:
O=C(NC1CCc2ccc(C(=O)N3CCC4(CCN(c5ccnc(C(F)(F)F)n5)CC4)C3)cc21)c1ccccc1Cl (centres unmarked)    98
Cc1ccc(C(=O)NC2CCc3ccc(C(=O)N4CCC5(CC4)CCN(c4ccncc4)CC5)cc32)c(F)c1 (centres unmarked)    67
O=C(NC1CCc2ccc(C(=O)N3CCC4(CCC(N5CCC5)CC4)CC3)cc21)c1ccccc1Cl (centres unmarked)    60
O=C(N[C@@H]1CCc2ccc(C(=O)N3CCC4(CCN(c5ccncc5)CC4)C3)cc21)c1c(Cl)cccc1C(F)(F)F    100
O=C(N[C@@H]1CCc2ccc(C(=O)N3CCC4(CC3)CCN(c3ccncc3)CC4)cc21)c1ccccc1F    100
Cc1cccc(C)c1C(=O)NC1CCc2ccc(C(=O)N3CCC4(CC3)CCN(c3ccc(C(F)(F)F)cc3)CC4)cc21 (centres unmarked)    14
O=C(NC1CCc2ccc(C(=O)N3CCC4(CC3)CCN(c3ccncc3)CC4)cc21)C(c1ccccc1)c1ccccc1Cl (centres unmarked)    87
O=C(N[C@H]1CCc2c(C(=O)N3CCC4(CC3)CCN(c3ccncc3)CC4)cccc21)c1ccccc1Cl    63
CC1(C)CC(NC(=O)c2sccc2Cl)c2cc(C(=O)N3CCC4(CC3)CCN(c3ccncc3)CC4)ccc21 (centres unmarked)    99
O=C(NC1CCc2ccc(C(=O)N3CCC4(CC3)CCN(c3ccncc3)C4)cc21)c1cc(Cl)ccc1C(F)(F)F (centres unmarked)    92

Batch request: inhibition at 10 µM per item, same order as input.
1. O=C(c1ccc2c(c1)C(N(C(=O)c1ccccc1Cl)C1CC1)CC2)N1CCC2(CC1)CCN(c1ccc(F)cc1)CC2 (centres unmarked)
2. O=C(NC1CCc2ccc(C(=O)N3CCC4(CC3)CCN(c3ccncc3)CC4)cc21)c1cc(C(F)(F)F)ccc1Cl (centres unmarked)
3. CC(C)(C(=O)N[C@@H]1CCc2ccc(C(=O)N3CCC4(CCN(c5ccncc5)CC4)C3)cc21)c1ccccc1Cl
4. N#Cc1ccc(N2CCC3(CCN(C(=O)c4ccc5c(c4)[C@H](NC(=O)c4ccccc4Cl)CC5)C3)CC2)cc1

[22, 99, 100, 70]

Taken from patent US8455475B2.
